- TESTED_SYSTEM: Human DGAT1 (Homo sapiens, UniProt O75907)
- Construct: my translation of the primer: M-G-DYKDDDD-GDRGSSRRR) (N); made in house; host or cells: Sf9 insect cells (recombinant baculovirus BAC-DGAT1, pFASTBAC1); microsome fraction
- MEASUREMENT_PROTOCOL: DGAT inhibitory activity: [14C]-triglyceride synthesis by DGAT1 high expression Sf9 microsome
- Format: biochemical
- CONDITION_LABEL: Table 2, 25 μM dioleoylglycerol, 25 μM [14C]-Oleoyl-CoA, 32° C., 15 min, read-out: DGAT inhibitory activity (according to IC50)
ENDPOINT: IC50

COC(=O)CCc1ccc(-c2cc(NC(=O)CCC(=O)c3ccc4c(c3)CCO4)nc(-c3ccccc3)c2)cc1 ... 50 to 500 nM

Batch of 3 compounds: report IC50 for each.
1. CN(C)c1ccc(-c2cc(NC(=O)CCC(=O)c3ccc4c(c3)CCO4)nc(-c3ccccc3)c2)cc1
2. CCCCOc1cccc(-c2cc(NC(=O)CCC(=O)c3ccc4c(c3)CCO4)nc(-c3ccccc3)c2)c1
3. CCOc1ccc(C(=O)CCC(=O)Nc2cc(-c3ccccc3)c3ccc(CCC(=O)OC(C)(C)C)cc3n2)cc1OCC

["50 to 500 nM", "500 to 10000 nM", "10 to 50 nM"]

Quick note, IC50 for `CCOc1ccc(C(=O)CCC(=O)Nc2cc(-c3ccccc3CO)cc(-c3ccccc3)n2)cc1OCC` landed at ≤ 10 nM

----------
- TESTED_SYSTEM: Human DGAT1 (Homo sapiens, UniProt O75907)
- Construct: my translation of the primer: M-G-DYKDDDD-GDRGSSRRR) (N); made in house; host or cells: Sf9 insect cells (recombinant baculovirus BAC-DGAT1, pFASTBAC1); microsome fraction
- Sequence (O75907 1-488): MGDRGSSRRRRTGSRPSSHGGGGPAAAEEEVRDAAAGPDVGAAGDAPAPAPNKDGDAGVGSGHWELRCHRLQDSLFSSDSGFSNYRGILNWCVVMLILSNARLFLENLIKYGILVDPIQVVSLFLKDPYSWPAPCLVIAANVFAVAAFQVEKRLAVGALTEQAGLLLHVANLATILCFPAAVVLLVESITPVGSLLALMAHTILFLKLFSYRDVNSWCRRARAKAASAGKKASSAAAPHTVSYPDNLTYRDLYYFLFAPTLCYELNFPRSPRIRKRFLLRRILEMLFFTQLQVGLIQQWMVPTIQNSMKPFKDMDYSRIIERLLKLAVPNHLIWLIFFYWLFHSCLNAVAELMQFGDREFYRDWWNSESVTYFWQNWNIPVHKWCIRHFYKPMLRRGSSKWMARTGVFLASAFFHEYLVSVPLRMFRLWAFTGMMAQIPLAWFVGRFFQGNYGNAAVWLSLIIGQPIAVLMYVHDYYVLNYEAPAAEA
- MEASUREMENT_PROTOCOL: DGAT inhibitory activity: [14C]-triglyceride synthesis by DGAT1 high expression Sf9 microsome
- Format: biochemical
- CONDITION_LABEL: Table 1, 25 μM dioleoylglycerol, 25 μM [14C]-Oleoyl-CoA, 32° C., 15 min, read-out: DGAT inhibitory activity (according to IC50)
pIC50: −log10 of the molar value.
ENDPOINT: pIC50

Recorded results for 2 compounds are shown here.
CCOc1ccc(C(=O)CCC(=O)Nc2cc(-c3ccc(OCC(=O)O)cc3)c3ccccc3n2)cc1OCC [Example 23] ... 5.00 to 6.30
CCOc1ccc(C(=O)CCC(=O)Nc2cc(OCc3ccccc3)cc(-c3ccccc3)n2)cc1OCC [Example 42] ... 6.30 to 7.30

Shift focus to the following entry.
Quick note, pIC50 for CCCc1cc(C(=O)CCC(=O)Nc2nc(-c3ccccc3)c(Cc3ccccc3)s2)ccc1OCC [Example 24] landed at 7.30 to 8.00
